# TARGET UNDER TEST: rat GPR14 (U-II receptor) (Rattus norvegicus, UniProt P49684)
# Sequence (P49684 whole entry): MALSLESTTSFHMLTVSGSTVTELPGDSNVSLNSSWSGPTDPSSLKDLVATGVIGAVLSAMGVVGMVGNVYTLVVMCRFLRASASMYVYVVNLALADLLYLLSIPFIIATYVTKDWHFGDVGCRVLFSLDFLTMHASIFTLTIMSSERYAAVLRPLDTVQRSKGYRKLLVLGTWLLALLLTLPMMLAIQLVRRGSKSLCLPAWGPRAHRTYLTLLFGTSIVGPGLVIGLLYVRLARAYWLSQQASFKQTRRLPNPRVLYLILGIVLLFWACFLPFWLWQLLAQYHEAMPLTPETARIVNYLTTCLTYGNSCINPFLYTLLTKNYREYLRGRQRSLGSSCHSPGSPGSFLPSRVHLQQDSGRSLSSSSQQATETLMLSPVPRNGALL
# PROTOCOL NOTES: Calcium flux assay (FLIPR)
# COND: Inhibition of acetyl-cyclic[Cys-Phe-Trp-Lys-(2-Nal)-Cys]-NH2 (1 nM) induced Ca2+ mobilization (FLIPR) in CHO cells transfected with rat UII receptor; 5 min incubation

[
  {
    "COMPOUND": "O=C(NCCc1cc(F)cc(F)c1)c1ccccc1C1CCN(CCN2C(=O)COc3ccccc32)CC1 [Cpd 21]",
    "IC50 [µM]": 9
  },
  {
    "COMPOUND": "CC(C)(C)OC(=O)NCCCCCNC(=O)c1cc(Cl)ccc1C1CCN(CCN2C(=O)CCc3ccccc32)CC1 [Cpd 83]",
    "IC50 [µM]": 0.36
  },
  {
    "COMPOUND": "O=C(c1ccccc1C1CCN(CCN2C(=O)COc3ccccc32)CC1)N1CCc2ccccc2C1 [Cpd 53]",
    "IC50 [µM]": 18
  },
  {
    "COMPOUND": "COc1cc(CCNC(=O)c2ccccc2C2CCN(CCN3C(=O)COc4ccccc43)CC2)cc(OC)c1 [Cpd 17]",
    "IC50 [µM]": 7
  },
  {
    "COMPOUND": "CN(CCc1ccccc1)C(=O)C1(c2ccccc2)CCN(CCN2C(=O)COc3ccccc32)CC1 [Cpd 106]",
    "IC50 [µM]": 14
  },
  {
    "COMPOUND": "O=C(NCCN1CCCCC1)c1ccccc1C1CCN(CCN2C(=O)COc3ccccc32)CC1 [Cpd 52]",
    "IC50 [µM]": 16
  },
  {
    "COMPOUND": "O=C(NCCCO)c1ccccc1C1CCN(CCN2C(=O)COc3ccccc32)CC1 [Cpd 39]",
    "IC50 [µM]": 32
  },
  {
    "COMPOUND": "O=C(NCCc1ccc(Cl)cc1)c1ccccc1C1CCN(CCN2C(=O)COc3ccccc32)CC1 [Cpd 9]",
    "IC50 [µM]": 3.2
  },
  {
    "COMPOUND": "O=C1COc2ccccc2N1CCN1CCC(C(=O)NCCc2ccccc2)(c2ccc(Cl)cc2)CC1 [Cpd 109]",
    "IC50 [µM]": 5
  },
  {
    "COMPOUND": "O=C1COc2ccccc2N1CCN1CCC(C(=O)NCc2ccccc2)(c2ccccc2)CC1 [Cpd 104]",
    "IC50 [µM]": 26
  },
  {
    "COMPOUND": "CC(Cc1ccc(Cl)cc1)NC(=O)c1ccccc1C1CCN(CCN2C(=O)COc3ccccc32)CC1 (stereo not drawn) [Cpd 12]",
    "IC50 [µM]": 10
  },
  {
    "COMPOUND": "O=C1COc2ccccc2N1CCN1CCC(C(=O)NCCc2ccccc2)(c2ccccc2)CC1 [Cpd 105]",
    "IC50 [µM]": 7
  },
  {
    "COMPOUND": "COCCCNC(=O)c1ccccc1C1CCN(CCN2C(=O)COc3ccccc32)CC1 [Cpd 37]",
    "IC50 [µM]": 30
  },
  {
    "COMPOUND": "O=C(NCCCCNC(=O)c1cc(Cl)ccc1C1CCN(CCN2C(=O)COc3ccccc32)CC1)OCc1ccccc1 [Cpd 69]",
    "IC50 [µM]": 0.15
  },
  {
    "COMPOUND": "O=C(NCCc1c[nH]c2ccccc12)c1ccccc1C1CCN(CCN2C(=O)COc3ccccc32)CC1 [Cpd 26]",
    "IC50 [µM]": 2
  },
  {
    "COMPOUND": "O=C(NCCc1cccs1)c1ccccc1C1CCN(CCN2C(=O)COc3ccccc32)CC1 [Cpd 47]",
    "IC50 [µM]": 7
  },
  {
    "COMPOUND": "O=C(NCCNC(=O)c1ccccc1C1CCN(CCN2C(=O)COc3ccccc32)CC1)Nc1cccc2ccccc12 [Cpd 55]",
    "IC50 [µM]": 2
  },
  {
    "COMPOUND": "CCOCCCNC(=O)c1ccccc1C1CCN(CCN2C(=O)COc3ccccc32)CC1 [Cpd 38]",
    "IC50 [µM]": 23
  },
  {
    "COMPOUND": "O=C(NCCc1ccc2ccccc2c1)c1cc(Cl)ccc1C1CCN(CCN2C(=O)COc3ccccc32)CC1 [Cpd 61]",
    "IC50 [µM]": 2
  },
  {
    "COMPOUND": "O=C(NCCCn1ccnc1)c1ccccc1C1CCN(CCN2C(=O)COc3ccccc32)CC1 [Cpd 48]",
    "IC50 [µM]": 43
  },
  {
    "COMPOUND": "CC(C)(C)OC(=O)N1CCN(CCNC(=O)c2cc(Cl)ccc2C2CCN(CCN3C(=O)COc4ccccc43)CC2)CC1 [Cpd 66]",
    "IC50 [µM]": 0.015
  },
  {
    "COMPOUND": "CC(C)(C)OC(=O)NCCCCNC(=O)c1cc(Cl)ccc1C1CCN(CCN2C(=O)COc3ccccc32)CC1 [Cpd 60]",
    "IC50 [µM]": 0.5
  },
  {
    "COMPOUND": "O=C(NCc1ccccn1)c1ccccc1C1CCN(CCN2C(=O)COc3ccccc32)CC1 [Cpd 41]",
    "IC50 [µM]": 21
  },
  {
    "COMPOUND": "COc1ccc(OC)c(CCNC(=O)c2ccccc2C2CCN(CCN3C(=O)COc4ccccc43)CC2)c1 [Cpd 13]",
    "IC50 [µM]": 8
  },
  {
    "COMPOUND": "O=C(NCCCCc1ccccc1)c1ccccc1C1CCN(CCN2C(=O)COc3ccccc32)CC1 [Cpd 4]",
    "IC50 [µM]": 3.1
  },
  {
    "COMPOUND": "CC(C)(C)CC(=O)NCCCCCNC(=O)c1cc(Cl)ccc1C1CCN(CCN2C(=O)COc3ccccc32)CC1 [Cpd 76]",
    "IC50 [µM]": 0.15
  },
  {
    "COMPOUND": "CC(C)(C)OC(=O)N1CCC(CNC(=O)c2ccccc2C2CCN(CCN3C(=O)COc4ccccc43)CC2)CC1 [Cpd 50]",
    "IC50 [µM]": 2.5
  },
  {
    "COMPOUND": "O=C(NCCCCCNS(=O)(=O)Cc1ccccc1)c1cc(Cl)ccc1C1CCN(CCN2C(=O)COc3ccccc32)CC1 [Cpd 78]",
    "IC50 [µM]": 0.1
  },
  {
    "COMPOUND": "O=C(NCc1ccncc1)c1ccccc1C1CCN(CCN2C(=O)COc3ccccc32)CC1 [Cpd 44]",
    "IC50 [µM]": 21
  },
  {
    "COMPOUND": "O=C(NCCc1cc(F)ccc1F)c1ccccc1C1CCN(CCN2C(=O)COc3ccccc32)CC1 [Cpd 22]",
    "IC50 [µM]": 13
  },
  {
    "COMPOUND": "O=C(NCCCCCNC(=O)c1cc(Cl)ccc1C1CCN(CCN2C(=O)COc3ccccc32)CC1)NCc1ccccc1 [Cpd 77]",
    "IC50 [µM]": 0.027
  },
  {
    "COMPOUND": "COC(=O)c1ccccc1C1CCN(CCN2C(=O)COc3ccccc32)CC1 [Cpd 93]",
    "IC50 [µM]": 32
  },
  {
    "COMPOUND": "O=C(NCCCN1CCCC1=O)c1ccccc1C1CCN(CCN2C(=O)COc3ccccc32)CC1 [Cpd 51]",
    "IC50 [µM]": 22
  }
]

Measured values drawn from patent US8759342B2 for this set.
